Measured values drawn from the supplement of paper PMC9492666 for this set.

test system: HCC1937; assay: relative cell viability, compound + erastin, vs DMSO (fraction of DMSO control); higher = less growth inhibition; settings: 72 h;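 note: viability read by CCK-8 kit in 96-well plates, part of a combination screen pairing lipid-metabolism-targeting compounds with erastin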
We label by threshold. Values of relative cell viability strictly beneath 0.8 are True. Values of 0.8 and up are False.

• C=C(C)[C@@H]1CC[C@]2(C)CC[C@]3(C)[C@H](CC[C@@H]4[C@@]5(C)CCC(=O)C(C)(C)[C@@H]5CC[C@]43C)[C@@H]12 + CCOc1ccccc1-n1c(C(C)N2CCN(C(=O)COc3ccc(Cl)cc3)CC2)nc2ccccc2c1=O = True
• O=C(CCCCc1ccc2c(c1)OCO2)N1CCCCC1 + CCOc1ccccc1-n1c(C(C)N2CCN(C(=O)COc3ccc(Cl)cc3)CC2)nc2ccccc2c1=O = True
• CN(CCOc1ccc(CC2SC(=O)NC2=O)cc1)c1ccccn1 (stereo not given) [Rosiglitazone] + CCOc1ccccc1-n1c(C(C)N2CCN(C(=O)COc3ccc(Cl)cc3)CC2)nc2ccccc2c1=O [erastin] = False

Now look at this one.
Query string: # check: relative cell viability < 0.8 for CC(C)(C)NC(=O)[C@H]1CC[C@H]2[C@@H]3CC[C@H]4NC(=O)C=C[C@]4(C)[C@H]3CC[C@]12C [Finasteride] + CCOc1ccccc1-n1c(C(C)N2CCN(C(=O)COc3ccc(Cl)cc3)CC2)nc2ccccc2c1=O
Result string: False
